Molecular target: beta-adrenoceptor (atrium) (Cavia porcellus)
Construct: As test tissue are used the atrium and trachea of guinea pigs; from tissue; host or cells: isolated guinea pig atrium
Sequence (H0W3H1 1-470): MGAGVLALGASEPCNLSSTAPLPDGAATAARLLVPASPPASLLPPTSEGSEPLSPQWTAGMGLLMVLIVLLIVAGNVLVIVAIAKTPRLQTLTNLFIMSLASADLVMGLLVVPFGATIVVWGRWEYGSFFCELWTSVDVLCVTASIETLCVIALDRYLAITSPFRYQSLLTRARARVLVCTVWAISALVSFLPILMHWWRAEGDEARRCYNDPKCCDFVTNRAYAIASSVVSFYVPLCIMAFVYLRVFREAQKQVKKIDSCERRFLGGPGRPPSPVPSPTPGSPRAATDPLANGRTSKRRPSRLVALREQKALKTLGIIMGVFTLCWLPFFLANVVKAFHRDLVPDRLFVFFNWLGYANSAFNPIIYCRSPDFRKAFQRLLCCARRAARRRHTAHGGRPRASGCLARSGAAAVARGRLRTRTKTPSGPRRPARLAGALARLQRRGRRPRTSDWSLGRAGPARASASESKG
Experiment: pA2 as beta-adrenoceptor blocker on isolated guinea pig atrium
Type: cell-based
MEASURED PARAMETER: Kb (nM)

P. CCCCCCCCCC(=O)Nc1ccc(OCC(O)CNC(C)(C)C)c(-c2nnco2)c1 (centres unmarked) [Example 6]
Q. CCCCCCCC(=O)Nc1ccc(OCC(O)CNC(C)(C)C)c(-c2nnco2)c1 (centres unmarked) [Example 4]
Ask: Given P and given Q , which shows the smaller recorded Kb? Select an item and report its label.
Reply: Q

I. CC(=O)Nc1ccc(OCC(O)CNC(C)(C)C)c(-c2nnco2)c1 (centres unmarked) [Example 1]
II. CCCCCCC(=O)Nc1ccc(OCC(O)CNC(C)(C)C)c(-c2nnco2)c1 (centres unmarked) [Example 2]
Ask: When I and II are compared, which has the higher number for Kb? Select an item and report its label.
Reply: I
(I: 209 nM, II: 50.1 nM)

====

Target: beta-adrenoceptor (trachea) (Cavia porcellus, UniProt Q8K4Z4)
Construct: As test tissue are used the atrium and trachea of guinea pigs; from tissue; host or cells: isolated guinea pig trachea
Sequence (Q8K4Z4 whole entry): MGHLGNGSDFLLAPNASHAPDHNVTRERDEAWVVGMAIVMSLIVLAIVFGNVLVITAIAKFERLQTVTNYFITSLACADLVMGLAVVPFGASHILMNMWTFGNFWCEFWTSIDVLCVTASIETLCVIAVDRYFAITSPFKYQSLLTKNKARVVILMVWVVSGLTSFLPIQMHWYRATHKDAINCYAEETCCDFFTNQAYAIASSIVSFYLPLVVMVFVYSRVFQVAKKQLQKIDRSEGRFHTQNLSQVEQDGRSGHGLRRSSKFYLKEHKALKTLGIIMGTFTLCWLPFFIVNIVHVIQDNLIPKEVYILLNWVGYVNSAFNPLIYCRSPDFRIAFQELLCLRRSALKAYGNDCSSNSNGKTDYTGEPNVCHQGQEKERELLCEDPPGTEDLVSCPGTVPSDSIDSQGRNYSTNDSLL
Test: pA2 as beta-adrenoceptor blocker on isolated guinea pig trachea
Type: cell-based
MEASURED PARAMETER: Kb (µM)

Check out these entries, answers already filled in.
COMPOUND | Kb (µM)
CCCCCCCCCC(=O)Nc1ccc(OCC(O)CNC(C)(C)C)c(-c2nnco2)c1 (stereo not drawn) [Example 6] | 1.58
CCCC(=O)Nc1ccc(OCC(O)CNC(C)C)c(C(C)=O)c1 (stereo not drawn) [Comparison Substance 1, Acebutolol, reference compound] | 9.77
CCCCCCCC(=O)Nc1ccc(OCC(O)CNC(C)(C)C)c(-c2nnco2)c1 (stereo not drawn) [Example 4] | 1.26

1. CC(=O)Nc1ccc(OCC(O)CNC(C)(C)C)c(-c2nnco2)c1 (stereo not drawn) [Example 1]
2. CCCCCCC(=O)Nc1ccc(OCC(O)CNC(C)(C)C)c(-c2nnco2)c1 (stereo not drawn) [Example 2]
3. CC(C)(C)NCC(O)COc1ccccc1-c1nnco1 (stereo not drawn) [Comparison Substance 2, reference compound]
Ask: Ranking field: Kb; order: falling. Answer by listing the labels in the requested order.
Reply: 1, 2, 3

====

System: beta-agonistic action (heart frequency)
Assay: Intrinsic sympathomimetic activity (ISA): increase of heart frequency in reserpinized rats relative to isoprenaline
Assay type: in vivo, rat
Conditions: increase of heart frequency, reserpinized rats; isoprenaline maximum = 100%
MEASURED PARAMETER: ISA % isoprenaline action (%)
Your answer is read as %, so omit the unit and give the number.

Check out these entries, answers already filled in.
COMPOUND | SYSTEM | READOUT UNITS | ISA % isoprenaline action
CC(C)(C)NCC(O)COc1ccccc1-c1nnco1 (stereo not drawn) [Comparison Substance 2, reference compound] | beta-agonistic action (heart frequency) | % | 79
CCCC(=O)Nc1ccc(OCC(O)CNC(C)C)c(C(C)=O)c1 (stereo not drawn) [Comparison Substance 1, Acebutolol, reference compound] | beta-agonistic action (heart frequency) | % | 27
CCCCCCCC(=O)Nc1ccc(OCC(O)CNC(C)(C)C)c(-c2nnco2)c1 (stereo not drawn) [Example 4] | beta-agonistic action (heart frequency) | % | 0
CCCCCCC(=O)Nc1ccc(OCC(O)CNC(C)(C)C)c(-c2nnco2)c1 (stereo not drawn) [Example 2] | beta-agonistic action (heart frequency) | % | 0

Ask: Please look at this compound and report its ISA % isoprenaline action: CC(=O)Nc1ccc(OCC(O)CNC(C)(C)C)c(-c2nnco2)c1 (stereo not drawn) [Example 1]
Reply: 0

Ask: Please look at this compound and report its ISA % isoprenaline action: CCCCCCCCCC(=O)Nc1ccc(OCC(O)CNC(C)(C)C)c(-c2nnco2)c1 (stereo not drawn) [Example 6]
Reply: 0
